The values you see were collected from paper PMC11714206.

biological target: MAL^TIR (Homo sapiens, UniProt P58753); construct: MAL (residues 79–221); 6xHis; made in house; host or cells: E. coli BL21 (DE3); test: T‐Surf phage library (P8 and P3) selection against MAL^TIR, four rounds, NGS read counts; type: binding; conditions: P8_MAL pool: P8 T-Surf phage library, 4th round of selection against MAL TIR, share of NGS reads
Sequence (P58753 79-221): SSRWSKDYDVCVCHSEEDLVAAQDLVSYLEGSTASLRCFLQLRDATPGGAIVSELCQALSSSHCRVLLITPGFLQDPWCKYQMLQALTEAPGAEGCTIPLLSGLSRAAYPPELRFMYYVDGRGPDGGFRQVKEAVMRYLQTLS
measurement.type: Population (%)
Give just the numeric value; % need not be written.

Please review the entries below; each comes with its answer.
In [3]: df
Out[3]:
          substance  meas_value
0  HFFGFN*KAFWAKPAX     0.00309
1  LFFWESLKQLLRSAGR      0.0034
2  AFLYTFLINLTHPTNS      0.0034

Qu. Any idea what its Population is? The substance is `TFLGHLYNALVQAGIP`
Ans. 0.00463

Qu. Data request, read-out Population, for `VFLYTFLINLTHPTNF`
Ans. 0.00309

Qu. For the substance `AFFWAQLKSVLGNPTL` , what Population is on record?
Ans. 0.00309

Qu. Bench note: what Population did `WFYERLVILILRDTKV` show?
Ans. 0.00278

Qu. What value of Population has been recorded for this entry: `WFYGRLVSLILRDTKV`
Ans. 0.0034

Qu. What value of Population has been reported for the following substance? `WF*ERLVSLILRDTKV`
Ans. 0.00278

====

biological target: MAL^TIR (Homo sapiens, UniProt P58753); construct: MAL (residues 79–221); 6xHis; made in house; host or cells: E. coli BL21 (DE3); assay: T‐Surf phage library (P8 and P3) selection against MAL^TIR, four rounds, NGS read counts; assay type: binding; conditions: P8 library, selection against MAL, rank by count before grouping
Could you label it class 1 if measured P8_MAL Rank (before) is 2000 or higher, and class 0 otherwise?

>>> print(df.to_string())
                seq  assigned_class
0  RHNFIGYLYQALYRIG         class 1
1  WFYEPLLSMLLRATKV         class 0
2   AFFWAQLKSVLQSDD         class 0

Qu. Determine whether measured P8_MAL Rank (before) meets or exceeds 2000 for `AILYTFLINLTLPANF`
Ans. class 0

Qu. Hello, I need to know if `AFYWAQLKIVLGNPTM` has measured P8_MAL Rank (before) not below 2000. Thanks!
Ans. class 0

Qu. Please tell me: is the sequence `WFLEQLEKILEAHGTT` at or over 2000 in terms of P8_MAL Rank (before)?
Ans. class 0

Qu. Please tell me: is the sequence `LRKIADLSGWTLKSFR` at or over 2000 in terms of P8_MAL Rank (before)?
Ans. class 1

Qu. Does the sequence `AFLYSLLFNRTHPNYF` have recorded P8_MAL Rank (before) that is 2000 or more?
Ans. class 0

====

target: MAL^TIR (Homo sapiens, UniProt P58753); construct: MAL (residues 79–221); 6xHis; made in house; host or cells: E. coli BL21 (DE3); experiment: T‐Surf phage library (P8 and P3) selection against MAL^TIR, four rounds, NGS read counts; assay type: binding; details: P3 library, selection against MAL, rank by count before grouping
Consider the cut-off 2000. If the recorded P3_MAL Rank (before) is strictly smaller, the label is true; if not, the label is false.

>>> print(df.to_string())
                seq  assigned_class
0  LKWGDPYFLEQTALCD           false
1  LKWGDPRQASKLGYTM           false
2  DWFLSKLSQHSLKLEK            true
3  SNLREGLWGLLELSKK           false
4  KNLFYDLVSKNIRTFM           false
5  SLRKNLVRNLIEEFNR           false
6  RAFSSHLRHHLLAKDQ           false
7  FAFTGQMLRYMVRSGL            true

Qu. Given `GCLYQAFARAGFKIFM` , is recorded P3_MAL Rank (before) strictly lower than 2000?
Ans. true

Qu. Say whether its P3_MAL Rank (before) is strictly beneath 2000. Entry: `RLLKWKEALHQFQTWL`
Ans. false

Qu. Regarding `VEPTQVRKQRCGGKC` , kindly confirm whether its P3_MAL Rank (before) is beneath 2000.
Ans. true

Qu. Answer whether the sequence `KNVRLARSVRKNGVP` has P3_MAL Rank (before) strictly less than 2000
Ans. false

Qu. Given `YAFTGHLHRYLVQRKQI` , is recorded P3_MAL Rank (before) strictly lower than 2000?
Ans. true

Qu. In the record for `YAFTSHLHHALRLNKIETF` , is P3_MAL Rank (before) less than 2000?
Ans. true

Qu. Dear reviewer, please state whether `PNLGTKTLNYLTRTKT` has P3_MAL Rank (before) strictly beneath 2000.
Ans. false

Qu. # check: P3_MAL Rank (before) < 2000 for `KNLFHELVIKNIRTFM`
Ans. false

Qu. Lab log: compare recorded P3_MAL Rank (before) with 2000; is it strictly lower for `YAARANSGFHTFRDND` ?
Ans. true

Qu. Please check: P3_MAL Rank (before) for `FMSHLYQGLLKGLIIT` , strictly under 2000 or not?
Ans. true

Qu. Problem: For the sequence `AWFRESLSRRLKGLLT` , is P3_MAL Rank (before) under 2000?
Ans. true

Qu. Report whether reported P3_MAL Rank (before) is lower than 2000 (strictly) for `TSFREGLLRLLELSKK`
Ans. false

Qu. A record lists `SSFREGLWRLLGLIKK` . Is its P3_MAL Rank (before) below 2000?
Ans. false
